Numbers sourced from paper PMC13422867.

Experiment: Pharmacokinetics in mice after oral or intravenous dosing
Type: in vivo
Details: mouse, plasma, po, 10 mg/kg, mice, PO 10 mg/kg, average of 3 mice
measured-metric: Cmax (nM)
Give the quantity in nM, number only.

Query string: Sample C[C@@H]1CN(C)CC[C@@H]1c1cc(-c2ccncc2)c(-c2ccc(F)cc2)[nH]1.Cl.Cl [RUPB-61] — what was its Cmax?
Result string: 630

----------
Target: PfPKG (Plasmodium falciparum, UniProt Q8I719)
Sequence (Q8I719 whole entry): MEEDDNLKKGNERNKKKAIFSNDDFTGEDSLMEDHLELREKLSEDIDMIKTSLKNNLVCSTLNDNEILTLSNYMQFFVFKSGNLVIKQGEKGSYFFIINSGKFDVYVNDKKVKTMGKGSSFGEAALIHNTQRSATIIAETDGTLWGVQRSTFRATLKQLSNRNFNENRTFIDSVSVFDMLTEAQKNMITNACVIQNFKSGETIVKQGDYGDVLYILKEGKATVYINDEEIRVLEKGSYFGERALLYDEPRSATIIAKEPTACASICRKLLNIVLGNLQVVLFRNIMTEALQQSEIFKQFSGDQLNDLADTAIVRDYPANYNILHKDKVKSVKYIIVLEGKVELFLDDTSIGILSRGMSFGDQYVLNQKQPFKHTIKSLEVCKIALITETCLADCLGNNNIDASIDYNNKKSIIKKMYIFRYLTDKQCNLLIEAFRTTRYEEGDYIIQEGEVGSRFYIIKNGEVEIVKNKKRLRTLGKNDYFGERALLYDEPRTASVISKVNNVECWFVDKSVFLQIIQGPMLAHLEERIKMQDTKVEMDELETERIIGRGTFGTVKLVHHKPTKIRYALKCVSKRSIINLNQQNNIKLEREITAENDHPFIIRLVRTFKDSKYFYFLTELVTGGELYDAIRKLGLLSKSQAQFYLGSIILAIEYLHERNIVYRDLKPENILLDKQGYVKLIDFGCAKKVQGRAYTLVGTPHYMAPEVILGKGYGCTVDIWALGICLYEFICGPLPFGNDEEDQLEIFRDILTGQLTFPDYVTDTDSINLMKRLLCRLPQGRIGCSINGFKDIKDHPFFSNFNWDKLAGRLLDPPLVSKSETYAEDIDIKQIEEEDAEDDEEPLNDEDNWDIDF
Assay: PfPKG enzyme inhibition
Type: biochemical
Conditions: Table 7; spread in parentheses not defined
measured-metric: IC50 (µM)
Write the number in µM without appending the unit.

Query string: Recorded IC50 for COC(=O)c1cc(-c2[nH]c(C3CCN(C)CC3)cc2-c2ccncc2)ccc1F [RUPB-72] , please?
Result string: 0.0172

----------
Assay: Pharmacokinetics in mice after oral or intravenous dosing
Type: in vivo
Conditions: mouse, plasma, po, 10 mg/kg, mice, PO 10 mg/kg, average of 3 mice; read-out: AUCINF_obs
measured-metric: AUC(0-inf) (µM·h)
# output: bare number, implied unit µM·h

Query string: Which AUC(0-inf) is listed for C[C@@H]1CN(C)CC[C@@H]1c1cc(-c2ccncc2)c(-c2ccc(F)cc2)[nH]1.Cl.Cl ?
Result string: 8.9

----------
Tested on: primary human hepatocytes
Assay: Cellular cytotoxicity, hepatocyte nuclear counts
Type: cell-based
Conditions: cellular cytotoxicity
measured-metric: CC50

Query string: I'd like to know its CC50. The compound in question is CNC(=O)c1ccc(-c2cnc3cnc(C(=O)N(C)c4ccc(Cl)cc4)cn23)cc1 [KDU-691]
Result string: > 10 µM

----------
Reported pIC50 values for the following compounds.
Tested on: P. falciparum 7G8
Experiment: Asexual blood stage growth inhibition, SYBR Green I, 72 h
Format: cell-based
Details: Plasmodium falciparum, mean (standard error) of 3 biological replicates
Remember the convention: pIC50 equals -log10 of concentration in molar.

Answered examples (4):
INSERT INTO assay_data (compound, observed_measurement) VALUES
  ('C[C@H]1[C@@H](O)O[C@@H]2O[C@@]3(C)CC[C@H]4[C@H](C)CC[C@@H]1[C@@]24OO3 [DHA, dihydroartemisinin, reference compound]', 9.30),
  ('C[C@H]1CN(C)CC[C@@H]1c1cc(-c2ccncc2)c(-c2ccc(F)cc2)[nH]1.Cl.Cl', 6.87),
  ('C[C@@H]1CN(C)CC[C@@H]1c1cc(-c2ccncc2)c(-c2ccc(F)cc2)[nH]1.Cl.Cl', 7.54),
  ('C[C@H]1CN(C)CC[C@H]1c1cc(-c2ccncc2)c(-c2ccc(F)cc2)[nH]1.Cl.Cl', 7.24);

Query string: # query: pIC50 | item C[C@@H]1CN(C)CC[C@H]1c1cc(-c2ccncc2)c(-c2ccc(F)cc2)[nH]1.Cl.Cl | system: P. falciparum 7G8
Result string: 7.55

----------
Tested on: primary simian hepatocytes
Assay: Cellular cytotoxicity, hepatocyte nuclear counts
Assay type: cell-based
measured-metric: CC50 (µM)
Please give a number only; it is taken to be in µM.

Query string: Value wanted: CC50 (primary simian hepatocytes) of entry CN1CCC(c2cc(-c3ccncc3)c(-c3ccc(F)cc3)[nH]2)CC1 [TSP, reference compound]
Result string: 8.5

----------
System: P. falciparum K1
Assay: Asexual blood stage growth inhibition, SYBR Green I, 72 h
Format: cell-based
Settings: Plasmodium falciparum, mean (standard error) of 3 biological replicates
pIC50: −log10 of the molar value.
Cut-off 7 on pIC50, inclusive. At or above means Condition met; below means Condition not met.

Worked examples follow.
INSERT INTO measurements (molecule, group_label) VALUES
  ('C[C@@H]1CN(C)CC[C@@H]1c1cc(-c2ccncc2)c(-c2ccc(F)cc2)[nH]1.Cl.Cl', 'Condition met'),
  ('C[C@H]1CN(C)CC[C@H]1c1cc(-c2ccncc2)c(-c2ccc(F)cc2)[nH]1.Cl.Cl', 'Condition not met');

In the following, a different molecule is considered.
Query string: Does the reported pIC50 for C[C@H]1[C@@H](O)O[C@@H]2O[C@@]3(C)CC[C@H]4[C@H](C)CC[C@@H]1[C@@]24OO3 [DHA, dihydroartemisinin, reference compound] fall at or above the 7 mark?
Result string: Condition met
